Tested on: 521955-158-R2-J5-PDC complex spheroid growth
Test: Anticancer human tumor 521955-158-R2-J5-PDC patient-derived pancreatic carcinoma cell line growth inhibition [AhR]
Conditions: second compound 0.316 µM; first compound 0.0316 µM; stronger effect = lower value
measurement name: viability, T/C (%)
Numeric only. Scale: %

In the examples that follow, each entry is paired with its recorded viability, T/C.
compound: Cn1ncnc1C1c2n[nH]c(=O)c3cc(F)cc(c23)NC1c1ccc(F)cc1 (stereo not drawn) + Cc1ccccc1N=Nc1ccc(NC(=O)c2ccnn2C)c(C)c1
result units: %
viability, T/C: 97.8
--
compound: CC1COCCN1c1cc(C2(S(C)(=N)=O)CC2)nc(-c2ccnc3[nH]ccc23)n1 (stereo not drawn) + Cc1ccccc1N=Nc1ccc(NC(=O)c2ccnn2C)c(C)c1
result units: %
viability, T/C: 104
--
compound: Nc1ncn(C2CC(O)C(CO)O2)c(=O)n1 (stereo not drawn) + Cc1ccccc1N=Nc1ccc(NC(=O)c2ccnn2C)c(C)c1
result units: %
viability, T/C: 86.6
--
compound: Nc1ccccc1NC(=O)c1ccc(CNC(=O)OCc2cccnc2)cc1 + CC(CO)NC(=O)c1cc(-c2ccc(Cl)cc2)nn(-c2cnn(C)c2)c1=O
result units: %
viability, T/C: 111
--
compound: COc1cccc2c1C(=O)c1c(O)c3c(c(O)c1C2=O)CC(O)(C(=O)CO)CC3OC1CC(N)C(O)C(C)O1 (stereo not drawn) + Cc1cncc(-c2nc(NCCc3c[nH]c4ccccc34)c3ncn(C(C)C)c3n2)c1
result units: %
viability, T/C: 49
--
compound: Nc1ncn(C2CC(O)C(CO)O2)c(=O)n1 (stereo not drawn) + Cc1cncc(-c2nc(NCCc3c[nH]c4ccccc34)c3ncn(C(C)C)c3n2)c1
result units: %
viability, T/C: 96.4

Below: the item to evaluate.
Form entry - test system: 521955-158-R2-J5-PDC complex spheroid growth; read-out: viability, T/C; compound: CC1(C)CCC(CN2CCN(c3ccc(C(=O)NS(=O)(=O)c4ccc(NCC5CCOCC5)c([N+](=O)[O-])c4)c(Oc4cnc5[nH]ccc5c4)c3)CC2)=C(c2ccc(Cl)cc2)C1 + CC(CO)NC(=O)c1cc(-c2ccc(Cl)cc2)nn(-c2cnn(C)c2)c1=O
115

---

System: 521955-158-R2-J5-PDC complex spheroid growth
Test: Anticancer human tumor 521955-158-R2-J5-PDC cell line growth inhibition [AhR]
Conditions: curve of first compound; second compound 0.1 µM
measurement name: IC50

compound: CC(C)c1c(-c2ccccc2)nc2c(C#N)c[nH]n2c1=O + Cc1cncc(-c2nc(NCCc3c[nH]c4ccccc34)c3ncn(C(C)C)c3n2)c1
observed: > 10 µM
//
compound: CC1(C)CCC(CN2CCN(c3ccc(C(=O)NS(=O)(=O)c4ccc(NCC5CCOCC5)c([N+](=O)[O-])c4)c(Oc4cnc5[nH]ccc5c4)c3)CC2)=C(c2ccc(Cl)cc2)C1 + Cc1cncc(-c2nc(NCCc3c[nH]c4ccccc34)c3ncn(C(C)C)c3n2)c1
observed: > 10 µM
//
compound: COc1cccc2c1C(=O)c1c(O)c3c(c(O)c1C2=O)CC(O)(C(=O)CO)CC3OC1CC(N)C(O)C(C)O1 (stereo unspecified) + Cc1cncc(-c2nc(NCCc3c[nH]c4ccccc34)c3ncn(C(C)C)c3n2)c1
observed: < 0.0316 µM
//
compound: CC1(C)CCC(CN2CCN(c3ccc(C(=O)NS(=O)(=O)c4ccc(NCC5CCOCC5)c([N+](=O)[O-])c4)c(Oc4cnc5[nH]ccc5c4)c3)CC2)=C(c2ccc(Cl)cc2)C1 + CC(CO)NC(=O)c1cc(-c2ccc(Cl)cc2)nn(-c2cnn(C)c2)c1=O
observed: > 10 µM
//
compound: Nc1ncn(C2CC(O)C(CO)S2)c(=O)n1 (stereo unspecified) + CC(CO)NC(=O)c1cc(-c2ccc(Cl)cc2)nn(-c2cnn(C)c2)c1=O
observed: > 0.3 µM

Form entry - test system: 521955-158-R2-J5-PDC complex spheroid growth; read-out: IC50; compound: CC(C)c1c(-c2ccccc2)nc2c(C#N)c[nH]n2c1=O + CC(CO)NC(=O)c1cc(-c2ccc(Cl)cc2)nn(-c2cnn(C)c2)c1=O
> 10 µM
